Hey, just so you know, these numbers are from patent EP4631938A1.

Test system: human recombinant 5-HT2C receptor (Homo sapiens, UniProt P28335)
Construct: expressed in transfected cells; host or cells: Jump-In HEK cells (membrane preparation)
Sequence (P28335 33-458): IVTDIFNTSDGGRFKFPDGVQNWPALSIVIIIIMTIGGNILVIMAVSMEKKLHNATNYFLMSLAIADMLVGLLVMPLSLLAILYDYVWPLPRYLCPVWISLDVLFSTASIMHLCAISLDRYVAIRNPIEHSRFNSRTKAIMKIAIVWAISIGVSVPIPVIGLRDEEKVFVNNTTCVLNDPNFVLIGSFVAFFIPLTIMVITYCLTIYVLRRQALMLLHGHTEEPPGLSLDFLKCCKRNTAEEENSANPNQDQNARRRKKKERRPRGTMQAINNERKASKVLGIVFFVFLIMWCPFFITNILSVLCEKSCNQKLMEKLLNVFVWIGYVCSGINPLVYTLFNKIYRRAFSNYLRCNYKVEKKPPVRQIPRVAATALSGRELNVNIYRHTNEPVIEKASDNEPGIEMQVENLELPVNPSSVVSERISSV
Experimental details: Test Example 2: 5-HT2C receptor binding inhibition test ([3H]-Mesulergine; non-specific ligand Serotonin HCl)
Condition description: human serotonin 5-HT2C receptor binding activity
Each record here notes measured log10 of Ki.
The figures below represent log10 of Ki, where Ki is stated in nM.

COCc1nc(C)c(-c2cc(Nc3ncc(-c4ccc(Cl)c(F)c4)cc3Cl)ncc2OCCO)c(C)n1 [Compound I-234]	-0.78
Cn1ncc(Br)c1-c1cc(Nc2ccc(OC3CC3)cn2)ncc1OCCO [Compound I-185]	0.44
Cn1ncc(Br)c1-c1cc(Nc2ccc(C(F)(F)F)cn2)c(Cl)cc1OCCO [Compound I-400]	0.14
Cn1ncc(Cl)c1-c1cc(Nc2ccc(OC(C)(F)F)cn2)ncc1OCCO [Compound I-229]	0.35
Cc1nc(C)c(-c2cc(Nc3ccc(-c4ccc(F)cc4)cn3)cnc2O[C@H](C)CO)c(C)n1 [Compound I-271]	0.59

Summary for this compound, Cc1nc(COC2COC2)nc(C)c1-c1cc(Nc2ncc(C(F)(F)F)cc2Cl)ncc1OCCO [Compound I-376] : log10 of Ki is 0.44

Summary for this compound, COCc1nc(C)c(-c2cc(Nc3ncc(-c4cc(F)cc(F)c4)cc3Cl)ncc2OCCO)c(C)n1 [Compound I-258] : log10 of Ki is -0.52

Summary for this compound, Cn1ncc(Cl)c1-c1nc(Nc2ccc(C(F)(F)F)cn2)c(F)cc1OCCO [Compound I-385] : log10 of Ki is 0.71

---

Test system: human recombinant 5-HT2C receptor (Homo sapiens, UniProt P28335)
Construct: expressed in transfected cells; host or cells: Jump-In HEK cells (membrane preparation)
Experimental details: Test Example 2-2: 5-HT2C receptor binding inhibition test ([3H]-Mesulergine; non-specific ligand Ketanserin)
Condition description: non-specific binding with 500 µmol/L Ketanserin, 37°C, 2 hours
Description: The Kd value is calculated when the lot of the cell membrane is changed. […] The radioactivity of [^3H]-Mesulergine bound to the 5-HT2C receptor is measured using Microbeta2 (PerkinElmer) at a measurement time of 1 min/well. The Saturation curve is drawn from the measured value, and the Kd value is calculated from the slope of the Scatchard Plot. […]
Measured property: log10 of Ki (log10 of the value in nM)
The figures below represent log10 of Ki, where Ki is stated in nM.

Recorded log10 of Ki, per entry:
Cn1ncc(C#N)c1-c1cc(Nc2ccc(C(F)(F)F)cn2)c(F)cc1OCCO	0.78
Cn1ncc(Br)c1-c1cc(Nc2ccc(C3CC3)cn2)ccc1OCCO	-0.50
Cn1ncc(C#N)c1-c1cc(Nc2ccc(OC(F)(F)F)cn2)ccc1OCCO	0.11
Cc1ncnc(C)c1-c1cc(Nc2ccc(Cl)cn2)ccc1OCCO	0.96

Summary for this compound, Cn1ncc(Br)c1-c1cc(Nc2nc3c(Cl)cccc3s2)ccc1OCCO : log10 of Ki is 0.29

---

Test system: human recombinant 5-HT2A receptor (Homo sapiens)
Construct: expressed in transfected cells; host or cells: Jump-In HEK cells (membrane preparation)
Experimental details: Test Example 1-2: 5-HT2A receptor binding inhibition test ([3H]-Ketanserin; non-specific ligand Ketanserin)
Condition description: [3H]-Ketanserin; non-specific binding with 500 µmol/L Ketanserin; room temperature (25°C), 1.5 hours; read-out: h 5-HT2A Ki
Description: The Kd value is calculated when the lot of the cell membrane is changed. […] The radioactivity of [^3H]-Ketanserin bound to the 5-HT2A receptor is measured using Microbeta2 (PerkinElmer) at a measurement time of 1 min/well. The Saturation curve is drawn from the measured value, and the Kd value is calculated from the slope of the Scatchard Plot. […]
Measured property: Ki (nM)
Express it in nM; write the number only.

Recorded Ki, per entry:
Cc1nnn(C)c1-c1cc(Nc2ncc(C(F)(F)F)cc2F)ccc1OCCO	0.376
Cn1ncc(C#N)c1-c1nc(Nc2ccc(-c3ccc(F)cc3)cn2)c(F)cc1OCCO	0.493
Cc1ccc(CO)cc1-c1cc(Nc2ncc(C(F)(F)F)cc2F)ncc1OCCO	1.21
Cn1ncc(Cl)c1-c1cc(Nc2ncc(Cl)cc2F)cnc1OCCO	0.259
COCc1nc(C)c(-c2cc(Nc3ncc(-c4ccc(Cl)cc4F)cc3Cl)ncc2OCCO)c(C)n1	0.577

Summary for this molecule, Cn1ncc(Br)c1-c1cc(Nc2nc3ccccc3o2)ncc1OCCO : Ki is 0.423

Summary for this molecule, Cn1ncc(Br)c1-c1cc(Nc2nccc3ccccc23)ccc1OCCO : Ki is 0.276

Summary for this molecule, Cn1ncc(Br)c1-c1cc(Nc2ncc(OC(F)(F)F)cc2F)ncc1OCCO : Ki is 0.28

Summary for this molecule, Cn1ncc(Cl)c1-c1cc(Nc2ncc(C(F)(F)F)cn2)c(Cl)cc1OCCO : Ki is 0.573

Summary for this molecule, Cn1cnc(Br)c1-c1cc(Nc2ncc(C(F)(F)F)cc2F)ccc1OCCO : Ki is 0.292

Summary for this molecule, Cc1cc(CO)ccc1-c1cc(Nc2ncc(C(F)(F)F)cc2F)ncc1OCCO : Ki is 0.847

---

Test system: human recombinant 5-HT2A receptor (Homo sapiens, UniProt P28223)
Construct: expressed in transfected cells; host or cells: Jump-In HEK cells (membrane preparation)
Sequence (P28223 whole entry): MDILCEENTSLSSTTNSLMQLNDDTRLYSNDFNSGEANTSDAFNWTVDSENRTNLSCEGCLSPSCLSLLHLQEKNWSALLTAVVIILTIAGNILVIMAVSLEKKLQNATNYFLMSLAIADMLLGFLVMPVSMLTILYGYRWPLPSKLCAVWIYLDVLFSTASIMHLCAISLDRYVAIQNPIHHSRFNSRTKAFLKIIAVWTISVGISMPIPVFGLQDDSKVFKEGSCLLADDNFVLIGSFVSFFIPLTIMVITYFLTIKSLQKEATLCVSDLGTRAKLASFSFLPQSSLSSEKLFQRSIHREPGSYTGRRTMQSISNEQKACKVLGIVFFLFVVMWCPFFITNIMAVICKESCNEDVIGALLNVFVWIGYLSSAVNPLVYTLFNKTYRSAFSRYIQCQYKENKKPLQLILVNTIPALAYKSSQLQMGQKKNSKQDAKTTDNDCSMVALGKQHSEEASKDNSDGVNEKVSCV
Experimental details: Test Example 1-2: 5-HT2A receptor binding inhibition test ([3H]-Ketanserin; non-specific ligand Ketanserin)
Condition description: [3H]-Ketanserin; non-specific binding with 500 µmol/L Ketanserin; room temperature (25°C), 1.5 hours; read-out: h 5-HT2A Ki
Measured property: Ki (nM)
Express it in nM; write the number only.

Recorded Ki, per entry:
Cn1ncc(C#N)c1-c1nc(Nc2ccc(-c3ccc(Cl)cc3)cn2)c(F)cc1OCCO	0.473
Cn1ncc(Cl)c1-c1cc(Nc2ncc(C(F)(F)F)cn2)ncc1OCCO	0.432
Cn1ncc(Br)c1-c1cc(Nc2ncc(C(F)(F)F)cc2F)c(F)cc1OCCO	0.279
Cn1ncc(C(F)(F)F)c1-c1cc(Nc2ncc(C(F)(F)F)cc2F)ccc1OCCO	0.389

Query compound follows.
Summary for this compound, Cn1ncc(Cl)c1-c1cc(Nc2ncc(C(F)(F)F)cn2)c(F)cc1OCCO : Ki is 0.361

---

Test system: human recombinant 5-HT2A receptor (Homo sapiens)
Construct: expressed in transfected cells; host or cells: Jump-In HEK cells (membrane preparation)
Experimental details: Test Example 1-2: 5-HT2A receptor binding inhibition test ([3H]-Ketanserin; non-specific ligand Ketanserin)
Condition description: [3H]-Ketanserin; non-specific binding with 500 µmol/L Ketanserin; room temperature (25°C), 1.5 hours; read-out: h 5-HT2A Ki
Criterion: Ki strictly under 0.3 nM. Met: Criterion met. Not met: Criterion not met.

A selection of reference data follows.
Cn1ncc(Br)c1-c1cc(Nc2ncc(C(F)(F)F)cn2)c(Cl)cc1OCCO	Criterion not met
OCCOc1ccc(Nc2ncc(C(F)(F)F)cc2F)cc1-c1c(Br)cnn1C1CC1	Criterion not met
Cn1ncc(Br)c1-c1cc(Nc2ncc(C(F)(F)F)cn2)c(F)cc1OCCO	Criterion not met
Cn1ncc(Br)c1-c1cc(Nc2ccc(OC(F)F)cn2)ncc1OCCO	Criterion not met

Next, consider the following molecule.
**Q:** Ki under 0.3 nM? Item: Cc1cc(C#N)ccc1Nc1ncc(OCCO)c(-c2c(Br)cnn2C)n1
**A:** Criterion not met

---

Test system: human recombinant 5-HT2A receptor (Homo sapiens, UniProt P28223)
Construct: expressed in transfected cells; host or cells: Jump-In HEK cells (membrane preparation)
Experimental details: Test Example 1-2: 5-HT2A receptor binding inhibition test ([3H]-Ketanserin; non-specific ligand Ketanserin)
Condition description: [3H]-Ketanserin; non-specific binding with 500 µmol/L Ketanserin; room temperature (25°C), 1.5 hours; read-out: h 5-HT2A Ki
Measured property: Ki (nM)
Express it in nM; write the number only.

Cn1ncc(Br)c1-c1cc(Nc2ncc(OC(F)F)cn2)ncc1OCCO	0.6
Cn1ncc(Cl)c1-c1cc(Nc2ncc(F)cc2F)c(F)cc1OCCO	0.325
Cc1nc(C)c(-c2nc(Nc3ccc(-c4ccc(C(F)(F)F)nc4)cn3)c(F)cc2OCCO)c(C)n1	2.32
Cn1ncc(Br)c1-c1cc(Nc2ncc(Cl)cn2)c(F)cc1OCCO	0.365
Cc1nc(C)c(-c2nc(Nc3ccc(OC(F)F)cc3)c(F)cc2OCCO)c(C)n1	0.958

Summary for this compound, Cc1ncnc(C)c1-c1cc(Nc2ccc(OC(F)(F)F)cn2)ccc1OCCO : Ki is 0.259

Summary for this compound, Cn1ncc(Cl)c1-c1cc(Nc2ncc(C(F)(F)F)cc2F)c(Cl)cc1OCCO : Ki is 0.42

---

Test system: human recombinant 5-HT2C receptor (Homo sapiens, UniProt P28335)
Construct: expressed in transfected cells; host or cells: Jump-In HEK cells (membrane preparation)
Experimental details: Test Example 2: 5-HT2C receptor binding inhibition test ([3H]-Mesulergine; non-specific ligand Serotonin HCl)
Condition description: human serotonin 5-HT2C receptor binding activity
Procedure: The Kd value is calculated when the lot of the cell membrane is changed. […] The radioactivity of [^3H]-Mesulergine bound to the 5-HT2C receptor is measured using Microbeta2 (PerkinElmer) at a measurement time of 1 min/well. The Saturation curve is drawn from the measured value, and the Kd value is calculated from the slope of the Scatchard Plot. […]
Each record here notes measured Ki.
Express it in nM; write the number only.

Recorded Ki, per entry:
Cn1ncc(Br)c1-c1nc(Nc2ccc(Cl)c(C(F)(F)F)c2)ncc1OCCO	6.51
CNC(=O)c1ccc(F)c(-c2cc(Nc3ncc(C(F)(F)F)cc3F)ncc2OCCO)c1	19

Summary for this compound, COCCOCc1nc(C)c(-c2cc(Nc3ncc(C(F)(F)F)cc3Cl)ncc2OCCO)c(C)n1 : Ki is 0.752

Summary for this compound, Cn1ncc(Cl)c1-c1cc(Nc2ncc(Cl)cn2)c(F)cc1OCCO : Ki is 4.25

Summary for this compound, Cc1nc(C)c(-c2cc(Nc3ncc(C(F)(F)F)cc3F)ncc2O[C@H](C)CO)c(C)n1 : Ki is 18.3

Summary for this compound, Cc1nc(COCC(F)F)nc(C)c1-c1cc(Nc2ncc(C(F)(F)F)cc2Cl)ncc1OCCO : Ki is 1.57

Summary for this compound, Cc1cnn(C)c1-c1cc(Nc2ccc(OC(F)(F)F)cn2)ncc1OCCO : Ki is 3.67

Summary for this compound, O=C1NCc2c1cncc2-c1cc(Nc2ncc(C(F)(F)F)cc2F)ncc1OCCO : Ki is 51.2

Summary for this compound, COCc1nc(C)c(-c2nc(Nc3ccc(C(F)(F)F)cn3)c(F)cc2OCCO)c(C)n1 : Ki is 9.69

Summary for this compound, Cn1ncc(Br)c1-c1nc(Nc2ccc(C(F)(F)F)nc2)ncc1OCCO : Ki is 47.7

Summary for this compound, Cn1ncc(Br)c1-c1cc(Nc2ccc(C(F)(F)F)nn2)c(F)cc1OCCO : Ki is 11

Summary for this compound, Cc1nc(C)c(-c2cc(Nc3ccc(Oc4ccc(F)cc4)cn3)ncc2OCCO)c(C)n1 : Ki is 9.45
